measurement_description: Pharmacokinetic properties (oral availability, elimination half-life, Cmax)
Assay type: in vivo
condition_context: in vivo
Source text: As used herein, bioavailability or oral availability refers to the rate and extent of absorption. Methods for determining bioavailability or oral availability are well known to those of skill in the art. For example, bioavailability or oral availability of any of the compounds described herein can be determined empirically by administration of the compound to an animal, followed by taking blood samples over time and measuring the blood concentration of the compound. […]
Label true (1) when Cmax is at or above 70 µg/mL; anything below gets false (0).

INSERT INTO results (molecule, discrete_label) VALUES
  ('Cc1cc(C)c(NC(=O)c2sccc2S(=O)(=O)Nc2onc(C)c2Cl)c(S(C)(=O)=O)c1 [Compound 42]', 'false (0)'),
  ('Cc1cc2c(cc1CC(=O)c1sccc1S(=O)(=O)Nc1onc(C)c1Cl)OCO2 [reference compound]', 'true (1)'),
  ('CC(=O)c1cc(C)cc(C)c1NC(=O)c1sccc1S(=O)(=O)Nc1onc(C)c1C [Compound 7]', 'true (1)'),
  ('Cc1cc(C)c(NC(=O)c2sccc2S(=O)(=O)Nc2onc(C)c2Cl)c(Cl)c1 [Compound 34]', 'false (0)'),
  ('Cc1cc(C)c(NC(=O)c2sccc2S(=O)(=O)Nc2onc(C)c2Cl)c(-c2ncco2)c1 [Compound 44]', 'false (0)');

###

tested_system: CYP3A4 (Homo sapiens, UniProt P08684)
Sequence (P08684 2-503 limits assumed): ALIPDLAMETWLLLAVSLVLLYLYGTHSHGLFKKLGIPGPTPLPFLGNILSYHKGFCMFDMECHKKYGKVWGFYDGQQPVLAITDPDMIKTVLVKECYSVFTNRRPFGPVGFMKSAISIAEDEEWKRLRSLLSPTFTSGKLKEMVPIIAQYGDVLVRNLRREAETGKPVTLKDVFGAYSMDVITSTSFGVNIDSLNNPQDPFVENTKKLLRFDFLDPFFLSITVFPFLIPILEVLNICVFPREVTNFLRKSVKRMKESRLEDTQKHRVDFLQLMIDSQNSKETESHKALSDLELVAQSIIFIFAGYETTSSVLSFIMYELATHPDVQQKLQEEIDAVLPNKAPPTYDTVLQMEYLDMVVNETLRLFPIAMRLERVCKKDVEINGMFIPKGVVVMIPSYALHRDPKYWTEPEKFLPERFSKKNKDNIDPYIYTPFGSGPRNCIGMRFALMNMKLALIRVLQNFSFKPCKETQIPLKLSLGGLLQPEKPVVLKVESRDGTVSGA
measurement_description: Cytochrome P450 enzyme assay, CYP3A4 (Gentest Supersomes, fluorometric)
condition_context: human recombinant enzyme, mean IC50; read-out: CP450 3A4 IC50
result_type: IC50 (µM)

INSERT INTO results (molecule, test_result) VALUES
  ('CC(=O)c1cc(C)cc(C)c1NC(=O)c1sccc1S(=O)(=O)Nc1onc(C)c1C [Compound 7]', 28),
  ('Cc1cc(C)c(NC(=O)c2sccc2S(=O)(=O)Nc2onc(C)c2Cl)c(S(C)(=O)=O)c1 [Compound 42]', 13.7),
  ('Cc1cc2c(cc1CC(=O)c1sccc1S(=O)(=O)Nc1onc(C)c1Cl)OCO2 [reference compound]', 0.09),
  ('Cc1cc(C)c(NC(=O)c2sccc2S(=O)(=O)Nc2onc(C)c2Cl)c(Cl)c1 [Compound 34]', 3.86);

###

Measured Selectivity (IC50 for ETB/IC50 for ETA) accompanies every entry in the list below.
Tested on: ETA receptors and ETB receptors
measurement_description: Endothelin binding inhibition, ETA (TE 671) and ETB (transfected COS7) receptors: selectivity
Parameters: species or system human
condition_context: antagonism of ETA receptors over ETB receptors
result_type: Selectivity (IC50 for ETB/IC50 for ETA)

INSERT INTO measurements (compound, result_type, test_result) VALUES
  ('Cc1cc(C)c(NC(=O)c2sccc2S(=O)(=O)Nc2onc(C)c2Cl)c(-c2ncco2)c1', 'Selectivity (IC50 for ETB/IC50 for ETA)', '119,000'),
  ('Cc1cc2c(cc1CC(=O)c1sccc1S(=O)(=O)Nc1onc(C)c1Cl)OCO2 [reference compound]', 'Selectivity (IC50 for ETB/IC50 for ETA)', '20,950'),
  ('Cc1cc(C)c(NC(=O)c2sccc2S(=O)(=O)Nc2onc(C)c2Cl)c(S(C)(=O)=O)c1', 'Selectivity (IC50 for ETB/IC50 for ETA)', '456,000'),
  ('CC(=O)c1cc(C)cc(C)c1NC(=O)c1sccc1S(=O)(=O)Nc1onc(C)c1C', 'Selectivity (IC50 for ETB/IC50 for ETA)', '441,000'),
  ('Cc1cc(C)c(NC(=O)c2sccc2S(=O)(=O)Nc2onc(C)c2Cl)c(Cl)c1', 'Selectivity (IC50 for ETB/IC50 for ETA)', '166,000');

This collection of values is drawn from patent US6686382B2.
